TARGET_OR_SYSTEM: T1, IL-18 receptor (IL-18Rαβ) on cells (UniProt Q13478 19-541; O95256 20-599, limits assumed)
T1 sequence (looked up) 1: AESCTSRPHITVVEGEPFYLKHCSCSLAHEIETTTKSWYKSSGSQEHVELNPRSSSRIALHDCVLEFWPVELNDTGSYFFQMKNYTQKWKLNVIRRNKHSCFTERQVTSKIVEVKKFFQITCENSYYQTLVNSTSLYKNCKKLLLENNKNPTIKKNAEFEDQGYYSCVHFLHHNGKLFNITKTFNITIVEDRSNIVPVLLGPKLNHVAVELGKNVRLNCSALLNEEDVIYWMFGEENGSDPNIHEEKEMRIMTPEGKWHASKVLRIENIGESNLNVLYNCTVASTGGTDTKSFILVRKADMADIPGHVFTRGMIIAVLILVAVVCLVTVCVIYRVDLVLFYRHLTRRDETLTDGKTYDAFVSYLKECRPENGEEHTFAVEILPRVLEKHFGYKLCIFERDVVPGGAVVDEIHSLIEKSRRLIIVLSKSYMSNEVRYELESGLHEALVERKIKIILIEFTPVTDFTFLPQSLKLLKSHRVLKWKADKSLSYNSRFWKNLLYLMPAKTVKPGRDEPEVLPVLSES
T1 sequence (looked up) 2: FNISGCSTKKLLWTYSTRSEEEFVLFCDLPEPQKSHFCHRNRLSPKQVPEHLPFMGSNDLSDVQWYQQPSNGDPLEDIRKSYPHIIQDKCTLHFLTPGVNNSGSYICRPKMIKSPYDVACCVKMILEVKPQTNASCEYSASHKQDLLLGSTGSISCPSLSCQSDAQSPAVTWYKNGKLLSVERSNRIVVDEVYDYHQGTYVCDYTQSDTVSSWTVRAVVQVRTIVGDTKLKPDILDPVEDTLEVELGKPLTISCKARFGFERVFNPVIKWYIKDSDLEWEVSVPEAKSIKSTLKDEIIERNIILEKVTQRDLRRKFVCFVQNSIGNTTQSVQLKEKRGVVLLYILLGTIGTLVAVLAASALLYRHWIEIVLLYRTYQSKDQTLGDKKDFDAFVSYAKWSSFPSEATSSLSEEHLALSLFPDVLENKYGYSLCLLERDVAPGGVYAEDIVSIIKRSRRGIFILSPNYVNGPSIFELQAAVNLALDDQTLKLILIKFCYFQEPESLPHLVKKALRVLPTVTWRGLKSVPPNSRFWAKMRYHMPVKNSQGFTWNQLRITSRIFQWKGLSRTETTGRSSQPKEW
METHOD_NOTES: cell-based or functional assay
Consider the following binders and their measured EC50 (nM), IFNγ induction, NK-92 cells readings.
Return type: number; implicit unit nM.

Example cases with answers are listed next.
binder="C166 (V11I, C38A, S55T, C76A, C127A) (ligand) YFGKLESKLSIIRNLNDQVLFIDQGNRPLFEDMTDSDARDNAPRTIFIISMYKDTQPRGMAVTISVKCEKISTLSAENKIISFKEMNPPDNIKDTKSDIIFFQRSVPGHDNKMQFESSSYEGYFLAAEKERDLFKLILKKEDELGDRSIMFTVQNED" measured_endpoint="EC50 (nM), IFNγ induction, NK-92 cells" observed_measurement=0.103
binder="IL-18 polypeptide SEQ ID NO: 49 (E06K, K53A, S55A, C38S, C68S, C76S, C127S, K70C) (ligand) YFGKLKSKLSVIRNLNDQVLFIDQGNRPLFEDMTDSDSRDNAPRTIFIISMYADAQPRGMAVTISVKSECISTLSSENKIISFKEMNPPDNIKDTKSDIIFFQRSVPGHDNKMQFESSSYEGYFLASEKERDLFKLILKKEDELGDRSIMFTVQNED" measured_endpoint="EC50 (nM), IFNγ induction, NK-92 cells" observed_measurement=58.5

Incoming: Entry under review: IL-18 polypeptide SEQ ID NO: 47 (C38S, C68S, C76S, C127S) (ligand) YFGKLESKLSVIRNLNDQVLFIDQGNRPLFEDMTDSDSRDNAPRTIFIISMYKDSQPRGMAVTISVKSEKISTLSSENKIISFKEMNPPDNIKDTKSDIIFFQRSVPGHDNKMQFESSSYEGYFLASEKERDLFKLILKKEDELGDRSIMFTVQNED . Reported EC50 (nM), IFNγ induction, NK-92 cells?
Outgoing: 0.115

Incoming: Query C152 (V11I, S36A, C38A, K53A, C76A, C127A) (ligand) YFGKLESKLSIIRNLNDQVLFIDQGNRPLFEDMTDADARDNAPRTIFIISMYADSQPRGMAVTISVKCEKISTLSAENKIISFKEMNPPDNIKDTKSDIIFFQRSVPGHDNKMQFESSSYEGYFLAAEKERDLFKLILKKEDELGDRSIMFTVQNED next
Outgoing: 0.175

Incoming: Query C165 (V11I, C38A, S55R, C76A, C127A) (ligand) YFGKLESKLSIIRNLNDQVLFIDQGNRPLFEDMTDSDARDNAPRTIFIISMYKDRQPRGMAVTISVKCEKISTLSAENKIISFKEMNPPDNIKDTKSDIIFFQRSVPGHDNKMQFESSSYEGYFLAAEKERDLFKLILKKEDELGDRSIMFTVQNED next
Outgoing: 0.098

Incoming: Query C155 (V11I, C38A, D40A, K53A, C76A, C127A) (ligand) YFGKLESKLSIIRNLNDQVLFIDQGNRPLFEDMTDSDARANAPRTIFIISMYADSQPRGMAVTISVKCEKISTLSAENKIISFKEMNPPDNIKDTKSDIIFFQRSVPGHDNKMQFESSSYEGYFLAAEKERDLFKLILKKEDELGDRSIMFTVQNED next
Outgoing: 0.558

Where do these numbers come from? They come from patent US20240116997A1.
